test: NCI Yeast Anticancer Drug Screen. Data for the sgs1 mgt1 strain (AID 161);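 also: 0% = growth of cultures given vehicle only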
stated conditions: S. cerevisiae sgs1 mgt1 strain, at 50.0 µM, active compounds read high
This is part of a sample that, as a whole, favours compounds with a hit. Of some 79,000 tested, about 15% had one in any assay.
// values below are reported growth inhibition
Lab book: enter the figure in %, no units written.

Solved cases below.
CCOC(=O)C(=O)C1C(=O)Nc2ccccc21 (stereo unspecified); -6.35
COC(=O)C(Cc1cc(OC)c(OC)c(OC)c1)(NC(=O)c1ccccc1)P(=O)(OC)OC (stereo unspecified); -38.4
N#CC(C#N)=C(N)/C(C#N)=C/c1ccc2[nH]ccc2c1; -29.2
O=C(CI)Nc1ccc2oc(=O)c(C(=O)O)cc2c1; 4.85
Oc1ccccc1CNCc1nc2ccccc2[nH]1; -11.6

Request: Can you share its growth inhibition? I mean this molecule: CCCCCCCOc1ccc(C2=C(c3ccccc3)C(=O)C(c3ccccc3)=C2c2ccccc2)cc1
Response: 8.3

----------
test: NCI Yeast Anticancer Drug Screen. Data for the mec2-1 strain (AID 157)
stated conditions: S. cerevisiae mec2-1 strain, at 50.0 µM, active compounds read high
About 79,000 compounds went through this panel and 15% of them were active in at least one assay; those are over-represented in the sample as a whole.
List of growth inhibition values.
Unit % implied. Number only.

// known answers, use as guide
Cc1cc(=O)[nH]c(NN2C(Cl)C(=O)C2c2cccc(Cl)c2)n1 (stereo not drawn); -34.1
COc1ccc2ccc3c4c(c(=O)[nH]c3c2n1)CCC4; 28.8
CC(C)C(=O)CC(c1ccc(Cl)cc1)N1N=C(C(C)C)CC1c1ccc(Cl)cc1 (stereo not drawn); 15.2

Request: Any idea what its growth inhibition is? The compound is O=C(O)/C=C/c1ccc(Oc2ccccc2C(=O)O)o1
Response: -7.15

Request: Please report the recorded growth inhibition for Oc1[nH]c2ccccc2c1N=Nc1nc(-c2ccccc2)cs1 .
Response: -52

Request: growth inhibition lookup needed for CC12CCCC=C1C(C)(C)C(O)CC2 (stereo not drawn) , thanks.
Response: 1.7

Request: # query: growth inhibition of entry c1ccc(CC2CO2)cc1 (stereo not drawn)
Response: -17.8

Request: Any idea what growth inhibition was measured for CC1(Cn2ccc(=O)[nH]c2=O)CC(C2(C)OCCO2)C(=O)O1 (stereo not drawn) ?
Response: -22.3

Request: # get_value(readout='growth inhibition', item= CCOC(=O)C(C)N1CCCCCCC1 (stereo not drawn) )
Response: -13.5

Request: growth inhibition lookup needed for COc1ccc(CSC(=S)Nc2ccc(C)c(Cl)c2)cc1 , thanks.
Response: 18.2

Request: Look up growth inhibition for this compound: CCOC(=O)C(C)Sc1ncnc2nc[nH]c12 (stereo not drawn)
Response: 4.4

Request: Requested field: growth inhibition. Item: CCOC(=O)Cn1ccc[n+]1CC(=O)c1ccccc1
Response: 7.9

Request: Please give the measured growth inhibition for this compound: CCCCN(CCCC)CCNC(c1ccc(Cl)cc1)c1ccc(OC)cc1 (stereo not drawn)
Response: 4.3

Request: Which value of growth inhibition has been reported for CC(=O)Nc1ccc(-c2cn3ccccc3n2)cc1 in the records?
Response: -1.5

Request: // returns reported growth inhibition for input Clc1ccccc1C=NCCN=Cc1ccccc1Cl
Response: -14.8

Request: Need growth inhibition of C#CCNC(=O)NC(CCCCNC(=O)OCc1ccccc1)C(=O)OCc1ccccc1 (stereo not drawn) , thanks.
Response: 2.9

Request: # growth inhibition lookup, item Cc1ccc(S(=O)(=O)CN2CCC(=O)c3ccccc32)cc1
Response: 12.6

Request: Suppose we examine the compound CCOC1(NC(=O)N(C)C)C2CCCC21 (stereo not drawn) ; what growth inhibition value has been reported?
Response: -4.15

Request: State the recorded growth inhibition for this entry: CCCCN(CC)C(=O)C(=O)Cc1nc2ccc(C(=O)c3ccccc3)cc2[nH]c1=O
Response: 2.45

Request: // growth inhibition lookup, key: C=C1C2CC(OC(C)=O)C3(C)C(c4ccoc4)OC(=O)[C@@H](O)[C@]13OC1C[C@H](OC(C)=O)C(C)(C)[C@H](C(O)C(=O)OC)[C@]12C (stereo partly drawn)
Response: -34.4

Request: Item under review: CC1(C)CC(O)CC(C)(C)N1.CC1(C)CC(O)CC(C)(C)N1.CC1(C)CC(O)CC(C)(C)N1.CC1(C)CC(O)CC(C)(C)N1.Cl.[Ti] . Reported growth inhibition?
Response: -4.45

Request: Entry Cc1cccc(C)c1N=O has what growth inhibition?
Response: -15.2

Request: Requested field: growth inhibition. Item: O=C(O)CC(C(=O)O)c1ccccc1[N+](=O)[O-] (stereo not drawn)
Response: -3.8

Request: Given the entry O=S(=O)(Nc1cccc(Cl)c1)c1ccc(F)cc1 , report its measured growth inhibition.
Response: -11.2

Request: Requested field: growth inhibition. Item: O=C(N/N=C/c1ccccc1)c1c(-c2cccnc2)cnc2ccccc12
Response: -9.3

----------
test: NCI Yeast Anticancer Drug Screen. Data for the mlh1 rad18 strain (AID 175)
stated conditions: S. cerevisiae mlh1 rad18 strain growth inhibition; at 50.0 µM; active compounds read high
Compounds without any hit were thinned out: in the full panel of roughly 79,000, 15% have a hit.
Assign Met whenever growth inhibition does not fall below -10%; assign Not met whenever it does.

Request: Please check the record CC(=O)N(c1c(N)[nH]c(=O)n(C)c1=O)C1OC(CO)C(O)C(O)C1O (configuration not stated) and state if its growth inhibition is at or above -10%.
Response: Met

Request: Quick check, growth inhibition >= -10%? CCCCOC(=O)/C(=C\c1ccc(OC(C)=O)c(OC)c1)NC(=O)c1ccccc1
Response: Met

Request: In plain terms: is recorded growth inhibition at least -10% for CCCOC(=O)O[C@H]1CC[C@@]2(C)C(=CC[C@H]3[C@@H]4CC[C@H]([C@H](C)CCCC(C)C)[C@@]4(C)CC[C@@H]32)C1 ?
Response: Not met

----------
test: NCI Yeast Anticancer Drug Screen. Data for the sgs1 mgt1 strain (AID 161);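 also: 0% = growth of cultures given vehicle only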
stated conditions: S. cerevisiae sgs1 mgt1 strain, at 50.0 µM, active compounds read high
Compounds without any hit were thinned out: in the full panel of roughly 79,000, 15% have a hit.
Recorded growth inhibition for the following compounds
Form entry: value (%) — number only.

CCN(CC)CCN(CCN(CC)CC)c1ccc2ccccc2c1; 7.3
CCOC(=O)c1c(C)c2c(n1C)CCC(CCC(C)=O)C2=O (centres undefined); -0.4
CCOC(=O)C(C)C(=O)OCC; 2.55
CCCCCCCC/C=C\CCCCCCC(F)C(=O)O (centres undefined); 16.2
CC(=O)Nc1ccc(SC#N)c2c(NC(C)=O)cccc12; 56.5
C=C1CC(C)(Cn2c(N)nc3nc[nH]c3c2=O)OC1=O (centres undefined); 11.1
Nc1cccc(-c2nc3ncnc(N)c3[nH]2)c1; -5.5
CC(=O)CC(=O)NC(C)(C)CC(C)(C)C; -31.8

Request: What measured growth inhibition goes with COc1ccc(C(=O)C2CC(=O)NC2=O)cc1 (centres undefined) ?
Response: -1.8

----------
test: NCI Yeast Anticancer Drug Screen. Data for the rad50 strain (AID 155);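 also: 0% = growth of vehicle-only cultures of the same strain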
stated conditions: S. cerevisiae rad50 strain growth inhibition; at 50.0 µM; active compounds read high
Compounds without any hit were thinned out: in the full panel of roughly 79,000, 15% have a hit.
Attribute: growth inhibition
Kindly provide the numeric value in % only, without the unit symbol.

Some solved cases for reference:
CSCc1cc(C)ccc1NC(C)=O; 0.5
C[C@]12CC[C@@H]3c4ccc(O)cc4CC[C@H]3[C@@H]1CC[C@@H]2OC(=O)CCc1ccccc1; 35.1
CC1(C)CC(=NNC(N)=S)CC(C)(C)N1; 1.3
CC(NC(=O)C(CC(=O)OCc1ccccc1)NC(=O)OCc1ccccc1)c1ccccc1 (stereo unspecified); 9.5
O=C(CC/C(CC(=O)c1ccc(Cl)cc1)=N\O)Nc1cccc(Cl)c1; -31.9

Request: GET /values?readout=growth inhibition&item= O=C1c2ccccc2C(=O)c2cc(Br)ccc21
Response: -6.75

Request: May I ask what growth inhibition has been recorded for COc1ccc(C2C(Cl)C(=O)N2NC(=O)c2ccccc2O)cc1 (stereo unspecified) ?
Response: -27.2

Request: May I ask what growth inhibition has been recorded for Cc1nc2ccccc2c(=O)n1NC(=O)c1ccccc1O ?
Response: -7.45

Request: Need growth inhibition of CC(O)(C#Cc1ccccc1)c1nc2ccccc2s1 (stereo unspecified) , thanks.
Response: 1.2

Request: Name the reported growth inhibition value associated with the molecule COC(=O)C1(Cc2ccccc2)Cc2ccccc2C1=O (stereo unspecified)
Response: -3.1

Request: Fill in the blank: the reported growth inhibition of CC(CC#N)=C(c1ccccc1)c1ccccc1 is ____.
Response: 17.4

Request: Could you tell me which growth inhibition is on file for COC(=O)Cc1c(C(C)=O)[nH]c2ccccc12 ?
Response: 19.5

Request: GET /values?readout=growth inhibition&item= Cc1ccc(C(=O)NC(C)C)cc1N=NN(C)C
Response: -34.2

Request: Give the measured growth inhibition of CCCCCCCCCCCCCCCCCCCCCCCCCC(=O)O .
Response: 30.4

Request: Which growth inhibition is listed for O=C1NC2c3ccccc3CCC12 (stereo unspecified) ?
Response: -1.55

Request: Query (molecule): CC(=O)OC(C(=O)N(c1ccccc1)c1ccccc1)c1ccccc1 (stereo unspecified) ; field requested: growth inhibition
Response: 3.5

Data provenance is PubChem BioAssay (NCI).
